pIC50: −log10 of the molar value.
The following compounds were reported with pIC50 values on human PDE10A2 (Homo sapiens (Human)) in different studies.
Decide by pIC50: equal to or exceeding 8 means criterion met, less means criterion not met.

INSERT INTO assay_data (compound, class_name) VALUES
  ('COc1ccc(C)n2nc(CCc3nc(-c4ccc(C)o4)cn3C)nc12', 'criterion not met'),
  ('CNC(=O)c1ccc(-c2nccnc2C2CN(c3ccc4ccc(F)cc4n3)C2)cc1F', 'criterion met'),
  ('Cc1c(Cl)cc(O)c2nc(CCc3nc(N4CCCC4)nn3C)nn12', 'criterion met'),
  ('Cc1ccc(NC(=O)c2nc(C3CC3)cnc2Nc2cncnc2)c(C(=O)N2CCC2)n1', 'criterion met'),
  ('CNC(=O)c1c(C)cccc1NC(=O)c1nc(C2CC2)cnc1Nc1cncnc1', 'criterion not met'),
  ('COc1nc2cccnc2n1[C@H]1C[C@H](Nc2ncc3ccc(Cl)cc3n2)C1', 'criterion not met'),
  ('Cn1cc(NC(=O)c2nc(C3CC3)ccc2Nc2cncnc2)c(C(=O)N2CCCC2CO)n1 (stereo not drawn)', 'criterion met'),
  ('Cc1c(Cl)nc2ccc(C#Cc3nc(N4CCCC4)nn3C)nn12', 'criterion met'),
  ('COc1nc2cccnc2n1C1CCN(C(=O)c2nc3ccccc3s2)CC1', 'criterion met');
